Below, each entry is listed alongside its reported IC50.
TARGET_OF_ASSAY: α-glucosidase
TEST: Alpha-glucosidase inhibitory assay
Format: biochemical, Bovine
SETTINGS: read-out: α-Glucosidase IC50 (μM ± SD); mean of three replicates
Output spec: scalar in µM, unitless text.

1) CC1=NCCNC(=O)C1=NNc1ccc(S(N)(=O)=O)cc1 [Compound 8] :: 110
2) CC1=NN(c2ccc(Cl)cc2)C(=O)C1=NNc1ccc(S(N)(=O)=O)cc1 [Compound 3b] :: 25.1
3) CC1=NN(c2ccccc2)C(=O)C1=NNc1ccc(S(N)(=O)=O)cc1 [Compound 3a] :: 19.4
4) CC1=NNC(=O)C1=NNc1ccc(S(N)(=O)=O)cc1 [Compound 4] :: 76
5) CC1=NN(c2cc(Cl)ccc2Cl)C(=O)C1=NNc1ccc(S(N)(=O)=O)cc1 [Compound 3i] :: 50.2

Fill in: IC50 of CC1=NOC(=O)C1=NNc1ccc(S(N)(=O)=O)cc1 [Compound 5] is ___
78.7

Fill in: IC50 of CC1=NNC(=S)NC(=O)C1/N=N/c1ccc(S(N)(=O)=O)cc1 (stereo not drawn) [Compound 7] is ___
85.4

----------
TARGET_OF_ASSAY: α-glucosidase
TEST: Alpha-glucosidase inhibitory assay
Format: biochemical, Bovine
SETTINGS: read-out: α-Glucosidase IC50 (μM ± SD); mean of three replicates
ENDPOINT: IC50 (µM)
Output spec: scalar in µM, unitless text.

Fill in: IC50 of CC1=NN(c2cccc([N+](=O)[O-])c2)C(=O)C1=NNc1ccc(S(N)(=O)=O)cc1 is ___
25.6

Fill in: IC50 of CC1=NN(c2cccc(C)c2)C(=O)C1=NNc1ccc(S(N)(=O)=O)cc1 is ___
55.4

----------
TARGET_OF_ASSAY: α-glucosidase
TEST: Alpha-glucosidase inhibitory assay
Type: biochemical, Bovine
SETTINGS: read-out: α-Glucosidase IC50 (μM ± SD); mean of three replicates
Below, each entry is listed alongside its reported IC50.
Output spec: scalar in µM, unitless text.

Below: 2 compounds and their reported IC50.
1) CC1=NN(c2ccc(C)cc2)C(=O)C1=NNc1ccc(S(N)(=O)=O)cc1 [Compound 3g] :: 99.1
2) CC1=NN(c2ccc(F)cc2)C(=O)C1=NNc1ccc(S(N)(=O)=O)cc1 [Compound 3e] :: 44.8

Alright, here's another compound for you.
Fill in: IC50 of CC1=NN(c2ccccn2)C(=O)C1=NNc1ccc(S(N)(=O)=O)cc1 [Compound 3j] is ___
82.7
